Hello, the source for this data is PubChem BioAssay, in case you need it.

PROTOCOL SUMMARY: viability profiling in MM1S myeloma cells – cell-based, resazurin fluorescence, basal, 24 h, PK04 Diversity Set, profiling panel (AID 1174);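 note: MM1S multiple myeloma cell line; test concentration not given here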
CONDITIONS USED: higher = more signal, called active from +8 up or from −8 down
A collection of molecules and their measured z-score
Enter a number only.

>  <MOLECULE>
CN(C)CCCNC(=O)[C@@]1(Cc2ccccc2I)c2ccccc2C(=O)N(Cc2ccccc2Cl)[C@H]1c1ccc(CO)cc1

>  <z-score>
-8.82

$$$$
>  <MOLECULE>
COCCOC(=O)N1C(=O)[C@@]2(c3cc(C#Cc4ccc(OC)cc4)ccc31)[C@H](C(=O)N1CCc3cc(OC)c(OC)cc3C1)[C@H]1C(=O)O[C@H](c3ccccc3)[C@H](c3ccccc3)N1[C@@H]2c1ccc(O)cc1

>  <z-score>
-0.108

$$$$
>  <MOLECULE>
C=C(COC)/C(=C/C[C@@H](OC(=O)c1ccncc1)c1cccc(OCCO)c1)c1cc(C(=O)OC)ccc1OC

>  <z-score>
-0.477

$$$$

Incoming: # z-score lookup, item C[N+](C)(C)CCCC[C@@H]1NC(=O)[C@@H]2C[C@H](C(=O)NCCCCCNC(=O)CS)[C@H](c3cccc(OCCO)c3)N2C1=O
Outgoing: 0.223

Incoming: Query (molecule): CC1CC/C=C\[C@H]2OC34C=CCN(c5ccc(Cl)cc5)C(=O)[C@H]3N(C(CO)C(C)C)C(=O)[C@]4(C)C2C(=O)O1 (stereo partly drawn) ; field requested: z-score
Outgoing: 0.0849

Incoming: May I ask what z-score has been recorded for O=C(CS)NCCCCCNC(=O)[C@@H]1C[C@@H]2C(=O)N3CCC[C@H]3C(=O)N2[C@@H]1c1ccc(O)cc1 ?
Outgoing: -0.0752

Incoming: Which z-score value is on record for COc1cccc(C)c1NC(=O)O[C@H]1[C@H](OC(=O)Nc2ccccc2)[C@H](OC(=O)Nc2ccccc2)[C@@H](OC)O[C@@H]1CO ?
Outgoing: -2.2

Incoming: z-score for CN(C)CCCC[C@@H]1NC(=O)[C@H]2C[C@@H](C(=O)NCCCCCCNC(=O)CS)[C@@H](c3ccc(O)cc3)N2C1=O ?
Outgoing: -0.614

Incoming: What does the data say about its z-score? Entry: C[N+](C)(C)CCCCCCNC(=O)[C@@H]1C[C@@H]2C(=O)NCC(=O)N2[C@@H]1c1cccc(OCCO)c1
Outgoing: 1.26

Incoming: Give its z-score value. Item: COCCOC(=O)N1C(=O)[C@@]2(c3cc(C#CC4(O)CCCCCC4)ccc31)[C@H](C(=O)N1CCc3cc(OC)c(OC)cc3C1)[C@H]1C(=O)O[C@H](c3ccccc3)[C@H](c3ccccc3)N1[C@@H]2c1ccccc1OCCO
Outgoing: 0.162

Incoming: Which value of z-score has been reported for CCOC(=O)C[C@H]1[C@H](OC(=O)c2cc3ccccc3oc2=O)[C@@H](NC(=O)c2ccc3ccccc3n2)c2cc(OCCCO)ccc2N1C(=O)c1ccc2ccccc2n1 in the records?
Outgoing: 0.35

Incoming: // returns reported z-score for input O=C1N(CCS(=O)(=O)c2ccccc2)Cc2ccccc2C[C@@]12COC(c1ccc(OCCCO)cc1)=N2
Outgoing: -5.12

Incoming: So what's the measured z-score for this one? CCOC(=O)C[C@H]1[C@H](OC(=O)Cc2ccc3c(c2)OCO3)[C@@H](NC(=O)c2ccccc2)c2cc(OCCCO)ccc2N1C(=O)c1ccccc1
Outgoing: 0.103

----------
PROTOCOL SUMMARY: S. pombe growth modifiers, basal conditions – strain 972, OD600, 24 h, no modulator, primary screen (AID 1090);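 note: basal condition with compound alone and no growth modifier present; test concentration not given here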
CONDITIONS USED: S. pombe 972 growth, higher = more signal, called active from +8 up or from −8 down
READOUT KIND: z-score
Answer with a number only.

>  <COMPOUND>
C=CCC(OC(C)=O)[C@@H]1[C@@H](N(Cc2ccc(-c3ccccc3)cc2)C(=O)Cc2ccc(OC)cc2)c2cc(OCCCO)ccc2N1C(=O)c1ccc(-c2ccccc2)cc1 (some centres not stated)

>  <z-score>
-0.512

$$$$
>  <COMPOUND>
CCOc1cc(C(O)C2C=CC3C(=O)NC(=O)C3N2Nc2ccccn2)ccc1O (configuration not stated)

>  <z-score>
1.33

$$$$
>  <COMPOUND>
COCC(=C=CC[C@@H](O)c1ccccc1OCCO)C[C@@H](O)c1ccccn1

>  <z-score>
-1.4

$$$$
>  <COMPOUND>
C=CCC(OC(C)=O)[C@@H]1[C@@H](N(Cc2cccc3ccccc23)C(=O)Cc2ccc(F)cc2)c2cc(OCCCO)ccc2N1C(=O)Cc1ccc(OC)cc1 (some centres not stated)

>  <z-score>
0.246

$$$$
>  <COMPOUND>
CN(C)C(=O)[C@@]1(Cc2ccccc2N=[N+]=[N-])N=C(c2ccc(OCCCO)cc2)O[C@H]1c1ccccc1N=[N+]=[N-]

>  <z-score>
-2.68

$$$$
>  <COMPOUND>
COCCCNC(=O)[C@@]1(Cc2ccccc2CN=[N+]=[N-])N=C(c2ccc(OCCCO)cc2)O[C@H]1c1ccccc1N=[N+]=[N-]

>  <z-score>
-0.954

$$$$

# input for lookup
Incoming: Would you mind telling me what z-score value was observed for O=C1OCCC=C[C@H]2OC34C=CCN(Cn5nnc6ccccc65)C(=O)[C@H]3N(CCCCCO)C(=O)[C@@H]4C12 (some centres not stated) ?
Outgoing: -0.439

----------
PROTOCOL SUMMARY: resazurin metabolic signal in A549 cells – cell-based, resazurin fluorescence, 24 h, PK04 Diversity Set, profiling panel (AID 1171); note: test concentration not given here
CONDITIONS USED: A549 viability, higher = more signal, called active from +8 up or from −8 down
With a cut-off of -0.9, any z-score strictly below it is called met; any z-score meeting it or above is called not met.

>  <COMPOUND>
Cc1ccccc1C(O)C1C=CC2C(=O)N(Cc3ccccc3)C(=O)C2N1n1cnnc1 (configuration not stated)

>  <ASSIGNED LABEL>
not met

$$$$
>  <COMPOUND>
C[N+](C)(C)CCCC[C@@H]1NC(=O)[C@@H]2C[C@H](C(=O)NCCCCCNC(=O)CS)[C@H](c3cccc(OCCO)c3)N2C1=O

>  <ASSIGNED LABEL>
not met

$$$$
>  <COMPOUND>
C[C@H]1NC(=O)C([C@@H](C)OCc2ccccc2)NC(=O)[C@@]23C(=O)N[C@@H](Cc4ccccc4)C2[C@H](C)[C@@]2(C)O[C@H]2C3/C=C/CC/C=C/CNC1=O (some centres not stated)

>  <ASSIGNED LABEL>
not met

$$$$

Incoming: Say whether its z-score is strictly beneath -0.9. Entry: COC(=O)[C@@]1(Cc2ccccc2)[C@H]2c3cc(C(=O)N(C)C)n(Cc4ccccn4)c3C[C@H]2CN1C(=O)c1ccccc1
Outgoing: not met

Incoming: Check if z-score falls below -0.9 for O=C1O[C@H](c2ccccc2)[C@H](c2ccccc2)N2[C@H]1[C@@H](C(=O)N1CCCCCCC1)[C@]1(C(=O)Nc3ccc(C#CCCO)cc31)[C@H]2c1ccc(OCCO)cc1 .
Outgoing: not met

Incoming: Could you please tell me whether z-score recorded for CN(C)C(=O)[C@@]1(Cc2ccccc2N=[N+]=[N-])N=C(c2ccc(OCCCO)cc2)O[C@H]1c1ccccc1N=[N+]=[N-] is less than -0.9?
Outgoing: not met

Incoming: State whether -0.9 exceeds z-score recorded for O=C1NC(=O)C2C1C=CC(C(O)c1ccc(-c3ccccc3)s1)N2Nc1ccccn1 (configuration not stated) .
Outgoing: not met

Incoming: Please check: z-score for CCCCCCCCCCC(O)C1C=CC2C(=O)NC(=O)C2N1Nc1ccccn1 (configuration not stated) , strictly under -0.9 or not?
Outgoing: met

Incoming: # strict comparison: is reported z-score < -0.9? input = COc1ccc(C#Cc2ccc3c(c2)[C@]2(C(=O)N3)[C@H](C(=O)O)[C@H]3C(=O)O[C@H](c4ccccc4)[C@H](c4ccccc4)N3[C@@H]2c2ccc(OCCO)cc2)cc1
Outgoing: not met

Incoming: Does the reported z-score of the following compound sit strictly below -0.9? COc1cccc(C)c1NC(=O)O[C@H]1[C@H](OC(=O)Nc2ccccc2)[C@H](OC(=O)Nc2ccccc2)[C@@H](OC)O[C@@H]1CO
Outgoing: met

Incoming: In plain terms, does Cc1ccc(S[C@]2(C(=O)O)CC(=O)N(C3CCCCC3)[C@@H]2c2ccc(CO)cc2)cc1 come in under -0.9 for z-score?
Outgoing: not met

Incoming: Please indicate whether the reported z-score of COC(=O)[C@@]1(Cc2ccc(OC)cc2)[C@H]2c3cc(C(=O)N4CCCC4)n(Cc4ccc(C)o4)c3C[C@H]2CN1C(=O)c1ccccc1 is strictly below -0.9.
Outgoing: met

Incoming: Please state whether z-score is below -0.9 for C[C@@H]1ON(c2ccccc2)[C@H](c2ccccc2)[C@H]1C(=O)N1C(=O)OC[C@H]1Cc1ccccc1
Outgoing: not met

Incoming: # check: z-score < -0.9 for O=C1N(CCS(=O)(=O)c2ccccc2)c2ccccc2[C@H]2OC(c3ccc(OCCCO)cc3)=N[C@@]12CCS(=O)(=O)c1ccccc1
Outgoing: not met

Incoming: Report whether reported z-score is lower than -0.9 (strictly) for COCCOC(=O)N1C(=O)[C@@]2(c3cc(C#CCC(C(=O)OC)C(=O)OC)ccc31)[C@H](c1ccc(OCCO)cc1)N1[C@H](c3ccccc3)[C@H](c3ccccc3)OC(=O)[C@H]1[C@@H]2C(N)=O
Outgoing: not met

Incoming: Here's an entry: NC(=O)[C@H]1[C@@H]2C(=O)O[C@@H](c3ccccc3)[C@@H](c3ccccc3)N2[C@@H](c2ccc(O)cc2)[C@]12C(=O)Nc1ccc(C#CC3(O)CCCCCC3)cc12 . Is its z-score below -0.9?
Outgoing: not met

Incoming: Determine whether this compound shows z-score lower than -0.9 (ties excluded): C=CCOC(=O)[C@@H]1[C@H]2C(=O)O[C@H](c3ccccc3)[C@H](c3ccccc3)N2[C@H](c2ccc(OCCOC(=O)[C@@H]3C[C@@H]4C(=O)N5CCC[C@H]5C(=O)N4[C@@H]3c3cccc(OCCO)c3)cc2)[C@@]12C(=O)Nc1ccc(I)cc12
Outgoing: not met

Incoming: Criterion: z-score strictly below -0.9. Is it met by COc1ccc([Si](C)(C)[C@@H]2[C@@H](CC(=O)N3Cc4ccccc4C[C@H]3CO)O[C@]3(C(=O)N(Cc4cccc(N5CCCCC5=O)c4)c4ccccc43)[C@H]2C)cc1 ?
Outgoing: met

Incoming: In the record for C=CCN1C(=O)[C@@]2(O[C@@H](CCn3cc([C@H](O)c4ccccc4)nn3)[C@H]([Si](C)(C)c3ccc(OC)cc3)[C@H]2C)c2cc(NC(=O)c3ccc(OC)cc3)ccc21 , is z-score less than -0.9?
Outgoing: met

Incoming: Identify whether the compound Cc1cc(C)c(C(O)C2C=CC3C(=O)N(c4ccccc4)C(=O)C3N2Nc2ccccc2)c(C)c1 (configuration not stated) records z-score below -0.9.
Outgoing: not met

Incoming: Does the reported z-score of COc1ccc([Si](C)(C)[C@@H]2[C@@H](CCO)O[C@]3(C(=O)N(Cc4ccc(N5C(=O)c6ccccc6Oc6ccccc65)cc4)c4ccccc43)[C@H]2C)cc1 stay below -0.9?
Outgoing: met

Incoming: Decide: z-score of Cc1ccc(S[C@]2(C(=O)NCc3ccccc3)CC(=O)N(C3Cc4ccccc4C3)[C@@H]2c2ccc(CO)cc2I)cc1 strictly below -0.9?
Outgoing: not met
